Assay: Human HepG2 cell viability assay in 384 well format
Type: toxicity, cell-based
Set-up: dose 125 nL, time 70.5 hour; concentration not given beside the values
Conditions: HepG2 cells, read-out: Inhibition
Here, each record is paired with measured cytotoxicity at 70.5 h data.
parameter.measured: cytotoxicity at 70.5 h (%)

# molecule, unit.of.measurement, val
data = [
    ("Cc1ccc(S(=O)(=O)N2CCC(Oc3ccccn3)CC2)c(C)c1", "%", -19.6),
    ("Oc1ccc(-c2c(-c3ccccc3)ncn2C2CCNC2)cc1 (stereo unspecified)", "%", 6.28),
    ("C=C(C)COc1cccc(CNCCc2nc(N)cc(O)n2)c1", "%", -9.19),
    ("Cc1ccc([C@]2(O)CC[C@H]3CN(Cc4ccc(Cl)cc4Cl)C[C@H]32)nc1", "%", 27.6),
    ("C[C@@H]1CN(C2CCOC2)C[C@]12CCN(c1cccnc1)C2=O (stereo partly specified)", "%", -9.89),
    ("O=C(CCc1ccc(O)cc1)N1CCC(Cc2ccc(CO)cc2)C1 (stereo unspecified)", "%", -9.62),
    ("CN(C)CC(O)Cn1cc(NCc2ccc(Br)cc2)cn1 (stereo unspecified)", "%", -2.01),
    ("COc1ccc(NCc2nc(=O)n(CCC(C)C)[nH]2)cc1", "%", -14.5),
    ("CC(C)CCC(=O)N1CCCC2(CCN(Cc3ccccc3C#N)C2)C1 (stereo unspecified)", "%", -5.13),
    ("O=C(O)c1ccc2c(CN3CCOCC3)c[nH]c2c1", "%", 32.5),
    ("CCOc1ccc(Cl)c(C(=O)N2CCN(C(=O)c3ccoc3C)CC2)n1", "%", -1.97),
    ("COc1cc(CN(C)Cc2cccnc2)c(SC)cc1OC", "%", -8.67),
    ("CCN(Cc1cccc(Cl)c1)Cc1ncc(C(C)(C)C)o1", "%", -1.17),
    ("CN1CCC(c2nnc3ccc(C(=O)N4CCCCC4)cn23)C1 (stereo unspecified)", "%", -9.66),
    ("COc1ccccc1CNC1(CCO)CCOCC1", "%", 20.6),
    ("CCSc1ncc(CN2CCC(O)(CN3CCOCC3)C(C)(C)C2)cn1 (stereo unspecified)", "%", 38.5),
    ("c1cnn(CC2CCCN2c2ncnc3ccsc23)c1 (stereo unspecified)", "%", 10.7),
    ("O=C(c1c[nH]cn1)N1CCC(F)(F)C2(CCN(c3cnccn3)C2)C1 (stereo unspecified)", "%", 0.139),
    ("Cn1c(C(F)(F)F)nn(CCNC(=O)c2nc3ccccc3s2)c1=O", "%", -8.57),
    ("CN(Cc1ccncc1)C(=O)c1ccc(F)c(NS(C)(=O)=O)c1", "%", -4.24),
    ("Cc1nc(NC(=O)CN2CCc3c(nc(C(C)C)n3C)C2)sc1C", "%", -7.61),
    ("Cc1cccc(CCC(=O)N2CCOCC2c2c(C)n[nH]c2C)c1 (stereo unspecified)", "%", 17.3),
    ("CN(C)C(=O)CN1CCN(C(=O)C2CSc3ccccc3O2)CC1 (stereo unspecified)", "%", -16.2),
    ("COc1ccccc1C(=O)NCc1n[nH]c(C)n1", "%", 0.0224),
    ("CC(NC(=O)NCCCN(C)S(C)(=O)=O)c1cccnc1 (stereo unspecified)", "%", -7.17),
    ("CCCNC(=O)c1cc2c(c3ccccc3n2C)n1C(=O)N(C)C", "%", -5.66),
]
